Readings of IC50 for the listed compounds
- TESTED TARGET: NMT from rabbit adrenals (norephineprine N-methyl transferase, PNMT) (Oryctolagus cuniculus, UniProt G1TT82)
- Construct: NMT from rabbit adrenals; from tissue; host or cells: rabbit adrenals
- METHOD SUMMARY: In vitro inhibition of N-methyl transferase (NMT) from rabbit adrenals
- Format: biochemical
- APPLIED CONDITIONS: read-out: pI50 (negative reciprocal logarhithm of the 50 percent inhibitory concentration) (converted)
Where a name gives a salt, the structure may show the parent alone.

Answered examples (3):
COMPOUND: NC1CCc2c(Cl)cccc21 (stereo not shown) [4-Chloro-1-aminoindane hydrochloride, 4-chloro-1-aminoindane hydrochloride]
IC50: 759 nM
--
COMPOUND: NC1CCc2ccc(Cl)c(Cl)c21 (stereo not shown)
IC50: 6030 nM
--
COMPOUND: NC1CCc2cc(Cl)c(Cl)cc21 (stereo not shown) [5,6-dichloro-1-aminoindane maleate]
IC50: 4680 nM

Consider the additional compound presented here.
For NC1CCc2c1ccc(Cl)c2Cl (stereo not shown) the compound record lists IC50 as 200 nM

* * *

- TESTED TARGET: NMT from rabbit adrenals (norephineprine N-methyl transferase, PNMT) (Oryctolagus cuniculus)
- Construct: NMT from rabbit adrenals; from tissue; host or cells: rabbit adrenals
- Sequence (G1TT82 1-286): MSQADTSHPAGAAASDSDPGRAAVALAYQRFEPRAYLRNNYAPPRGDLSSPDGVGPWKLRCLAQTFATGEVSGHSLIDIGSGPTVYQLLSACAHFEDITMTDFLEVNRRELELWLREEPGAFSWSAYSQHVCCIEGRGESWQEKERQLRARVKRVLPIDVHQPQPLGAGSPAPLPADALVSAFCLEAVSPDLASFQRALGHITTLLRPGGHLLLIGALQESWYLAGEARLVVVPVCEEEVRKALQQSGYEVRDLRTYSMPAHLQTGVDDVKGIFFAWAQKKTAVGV
- METHOD SUMMARY: In vitro inhibition of N-methyl transferase (NMT) from rabbit adrenals
- Format: biochemical
- APPLIED CONDITIONS: series of decreasing inhibitor concentrations from 1 × 10^-4 M, read-out: 50 Inhibitory Concentration (concentration at which 50 percent inhibition of NMT is obtained)
Structures can show the parent of a compound that is named as a salt.
List of pIC50 values.
When answering, recall that pIC50 equals minus log10 of the concentration in mol/L, and write that number alone.

Record summary for NC1CCc2cc(Cl)c(Cl)cc21 (stereo not shown) [5,6-dichloro-1-aminoindane maleate] : reported pIC50 = 5.53

Input NC1CCc2c(Cl)cccc21 (stereo not shown) [4-Chloro-1-aminoindane hydrochloride, 4-chloro-1-aminoindane hydrochloride] . Output pIC50: 6.12

Summary for this compound, NC1CCc2c1ccc(Cl)c2Cl (stereo not shown) : pIC50 is 6.70

Short answer for NC1CCc2ccc(Cl)c(Cl)c21 (stereo not shown) : pIC50 was 5.27
